Values from paper PMC3591448

targetOrTestSystem: UniProt P08659
test: biochemical
Assay type: biochemical
experimentalContext: Figure 2b, representative structures of clusters; read-out: FLuc IC50
resultType: IC50 (µM)

NS(=O)(=O)c1cccc(N/C=C2\C(=O)Nc3ccccc32)c1 [GW275616X] ... 18

P = CS(=O)(=O)CCNCc1coc(-c2ccc3ncnc(Nc4ccc(OCc5ccccc5)cc4)c3c2)c1 [GW566221A]
Q = COc1cccc(-c2c[nH]c3c(N/N=C/c4ccncc4)ncnc23)c1 [GW814408X]
R = O=C(Nc1n[nH]c2cc(-c3ccccc3)ccc12)C1CC1 [SB-732941]
[in] Rank the 3 molecules: largest IC50 first, smallest last. Respond with an ordered listing of the labels, as requested.
[out] R, P, Q
(R: 18 µM, P: 12 µM, Q: 6 µM)

* * *

targetOrTestSystem: firefly luciferase, Photinus pyralis (FLuc) (Photinus pyralis, UniProt P08659)
Sequence (P08659 whole entry): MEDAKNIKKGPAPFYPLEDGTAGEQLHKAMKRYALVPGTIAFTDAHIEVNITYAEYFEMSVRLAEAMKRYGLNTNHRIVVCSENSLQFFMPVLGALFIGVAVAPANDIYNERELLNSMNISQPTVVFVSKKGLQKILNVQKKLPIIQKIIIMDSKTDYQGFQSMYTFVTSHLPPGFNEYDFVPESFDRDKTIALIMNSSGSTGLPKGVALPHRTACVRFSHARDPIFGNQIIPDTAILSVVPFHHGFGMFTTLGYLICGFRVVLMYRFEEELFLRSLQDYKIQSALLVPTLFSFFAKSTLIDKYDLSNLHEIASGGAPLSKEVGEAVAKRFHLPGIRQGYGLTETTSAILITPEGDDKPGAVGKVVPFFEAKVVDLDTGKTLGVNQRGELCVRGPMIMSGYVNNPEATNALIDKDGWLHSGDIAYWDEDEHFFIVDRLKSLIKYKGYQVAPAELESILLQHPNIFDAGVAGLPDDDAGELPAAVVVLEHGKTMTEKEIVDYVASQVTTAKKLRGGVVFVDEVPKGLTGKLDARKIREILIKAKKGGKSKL
test: biochemical
Format: biochemical
experimentalContext: Figure 3; read-out: IC50 (FLuc)
resultType: IC50 (µM)

# count of solved cases: 3
COc1cccc(-n2ncc3c(N/N=C/c4ccc(C(=O)NCCN(C)C)cc4)ncnc32)c1 [GW784307A] ... 16
COc1cc(/C=N/Nc2ncnc3[nH]ncc23)ccc1O [GW578748X] ... 3.7
COc1cccc(-n2cnc3c(N/N=C/c4ccncc4)ncnc32)c1 [GW813360X] ... 16

A = COC(=O)Nc1nc2cc(Oc3ccc(NC(=O)Nc4ccccc4)cc3)ccc2[nH]1 [GW694590A]
B = COc1cccc(-n2ncc3c(N/N=C/c4ccncc4)ncnc32)c1 [GW784752X]
C = COc1cccc(-n2ncc3c(N/N=C/c4ccc(F)cc4)ncnc32)c1 [GW817396X]
[in] Rank the 3 compounds: largest IC50 first, smallest last. Respond with an ordered listing of the labels, as requested.
[out] C, A, B

* * *

targetOrTestSystem: UniProt:P08659
test: biochemical
Assay type: biochemical
experimentalContext: 10 nM FLuc, 10 µM D-luciferin, 10 µM ATP; read-out: FLuc Parameters IC50
resultType: IC50 (nM)
Report only the number, with the unit nM understood.

# count of solved cases: 6
COc1cc(Nc2ncc(-c3ccccc3)o2)cc(OC)c1 [GW631581B] ... 6510
C/C(Nc1ccc(S(N)(=O)=O)cc1)=C1/C(=O)Nc2ccccc21 [GW335962X] ... 3660
COC(=O)Nc1nc2ccc(Oc3ccc(NC(=O)Nc4cccc(C(=O)O)c4)cc3)cc2[nH]1 [GW701427A] ... 120
O=C1Nc2ccccc2/C1=C/Nc1ccc2[nH]c(=O)[nH]c2c1 [GW284408X] ... 4110
c1cc(-c2cnn3nc(N4CCOCC4)ccc23)nc(NC2CC2)n1 [GW708336X] ... 4610
Cc1cccc(Nc2ncc(-c3ccccc3)o2)c1 [GW632046X] ... 580

[in] Supply recorded IC50 for CN(c1ccc(NC(=O)Nc2c(Cl)cccc2Cl)cc1)c1ccnc(Nc2cccc(CS(C)(=O)=O)c2)n1 [GW809897X] here.
[out] 580

[in] Supply recorded IC50 for COc1ccccc1Nc1ncc(-c2ccccc2)o1 [GW577921A] here.
[out] 1030

[in] Supply recorded IC50 for O=C1Nc2ccccc2/C1=C1\CCc2cc(O)ccc21 [GR105659X] here.
[out] 5170

[in] Supply recorded IC50 for COc1cc(/C=N/Nc2ncnc3[nH]ncc23)ccc1O [GW578748X] here.
[out] 3660

[in] Supply recorded IC50 for CCn1c(-c2nonc2N)nc2cnc(Oc3cccc(NC(=O)c4ccc(N(C)C)cc4)c3)cc21 [GSK248233A] here.
[out] 1030

[in] Supply recorded IC50 for O=C(NCC1CC1)c1ccc(-c2cccc(C(=O)NC3CC3)c2)cc1 [GW806776X] here.
[out] 9190

[in] Supply recorded IC50 for N#Cc1c(NC(=O)c2ccccc2F)sc2c1CCCC2 [GW572738X] here.
[out] 820

[in] Supply recorded IC50 for COc1ccc(Nc2ncc(-c3ccccc3)o2)cc1OC [GW575533A] here.
[out] 5800

[in] Supply recorded IC50 for NC(=O)c1cccc(Nc2nccc(Nc3cccc(F)c3)n2)c1 [GW759710A] here.
[out] 730

[in] Supply recorded IC50 for N#Cc1cccc(Nc2ncc(-c3ccccc3)o2)c1 [GW627834A] here.
[out] 1030

[in] Supply recorded IC50 for "COc1ccc(-c2ccc3c(NC(=O)C4CC4)n[nH]c3n2)cc1" here.
[out] 2310

[in] Supply recorded IC50 for c1ccc(Nc2ncc(-c3ccccc3)o2)cc1 [GW549390X] here.
[out] 260

[in] Supply recorded IC50 for COc1cc(/C=N/Nc2ncnc3c2cnn3C(C)C)ccc1O [GW644007X] here.
[out] 5800

[in] Supply recorded IC50 for Cc1ccc(Nc2ccnc(Nc3cccc(C(N)=O)c3)n2)cc1O [GW575808A] here.
[out] 1460

[in] Supply recorded IC50 for "N#Cc1c(NC(=O)c2ccc(F)cc2)sc2c1CCCC2" here.
[out] 920
